- target-or-system: Mu-type opioid receptor (Cavia porcellus, UniProt P97266)
- Sequence (P97266 whole entry): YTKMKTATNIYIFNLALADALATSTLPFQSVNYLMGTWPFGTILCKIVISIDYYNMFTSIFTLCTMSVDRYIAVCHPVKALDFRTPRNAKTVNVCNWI
pIC50: −log10 of the molar value.
Mark Criterion met for reported pIC50 of 7 or greater; mark Criterion not met for anything smaller.

Here are 4 compounds together with their reported answers.
entry_smiles=CC[C@H](C)[C@H](NC(=O)[C@H]1CCCCNC(=O)C[C@@H](NC(=O)CNC(=O)[C@@H](N)Cc2ccc(O)cc2)C(=O)N[C@H](Cc2ccccc2)C(=O)N[C@@H](CC(C)C)C(=O)N[C@H](CCCN=C(N)N)C(=O)N1)C(=O)N[C@@H](CCCN=C(N)N)C(=O)N1CCC[C@@H]1C(=O)N[C@H](CCCCN)C(N)=O category_label="Criterion not met"
entry_smiles=CC[C@H](C)[C@H](NC(=O)[C@H](CCCCN)NC(=O)[C@H](CCCNC(=N)N)NC(=O)[C@H](CC(C)C)NC(=O)[C@H](Cc1ccccc1)NC(=O)[C@H](CC(=O)O)NC(=O)CNC(=O)[C@@H](N)Cc1ccc(O)cc1)C(=O)N[C@@H](CCCNC(=N)N)C(=O)N1CCC[C@H]1C(=O)N[C@@H](CCCCN)C(N)=O category_label="Criterion not met"
entry_smiles=CC[C@H](C)[C@H](NC(=O)[C@H](CCCNC(=N)N)NC(=O)[C@@H]1CCCCNC(=O)C[C@H](NC(=O)[C@@H](N)Cc2ccc(O)cc2)C(=O)NCC(=O)N[C@@H](Cc2ccccc2)C(=O)N[C@@H](CC(C)C)C(=O)N1)C(=O)N[C@@H](CCCNC(=N)N)C(=O)N1CCC[C@H]1C(=O)N[C@@H](CCCCN)C(N)=O category_label="Criterion met"
entry_smiles=CC[C@H](C)[C@H](NC(=O)[C@H](CCCN=C(N)N)NC(=O)[C@H](CCCN=C(N)N)NC(=O)[C@H](CCCCN)NC(=O)[C@H](Cc1ccccc1)NC(=O)CNC(=O)CNC(=O)[C@@H](N)Cc1ccc(O)cc1)C(=O)N[C@@H](CC(=O)O)C(=O)N1CCC[C@H]1C(=O)N[C@@H](CCCCN)C(N)=O category_label="Criterion not met"

Query string: Exam item: decide whether the reported pIC50 for CC[C@@H](C)[C@H]1NC(=O)[C@H](CCCNC(=N)N)NC(=O)[C@@H](CCCNC(=N)N)NC(=O)[C@H](NC(=O)[C@@H](Cc2ccccc2)NC(=O)CNC(=O)CNC(=O)[C@H](N)Cc2ccc(O)cc2)CCCCNC(=O)C[C@@H](C(=O)N2CCC[C@H]2C(=O)N[C@H](CCCCN)C(N)=O)NC1=O is at least 7.
Result string: Criterion met

Query string: Reported pIC50 reaches at least 7 for CC[C@H](C)[C@H](NC(=O)[C@H](CCCCN)NC(=O)[C@H](CCCNC(=N)N)NC(=O)[C@H](CC(C)C)NC(=O)[C@H](Cc1ccccc1)NC(=O)[C@@H](CC(=O)O)NC(=O)CNC(=O)[C@@H](N)Cc1ccc(O)cc1)C(=O)N[C@@H](CCCNC(=N)N)C(=O)N1CCC[C@H]1C(=O)N[C@@H](CCCCN)C(N)=O ?
Result string: Criterion not met

Query string: Is pIC50 for CC[C@H](C)[C@H](NC(=O)[C@H](CCCNC(=N)N)NC(=O)[C@@H]1CCCCNC(=O)C[C@@H](NC(=O)[C@@H](N)Cc2ccc(O)cc2)C(=O)NCC(=O)N[C@@H](Cc2ccccc2)C(=O)N[C@@H](CC(C)C)C(=O)N1)C(=O)N[C@@H](CCCNC(=N)N)C(=O)N1CCC[C@H]1C(=O)N[C@@H](CCCCN)C(N)=O at or above 7?
Result string: Criterion not met

Query string: Would you say CC[C@H](C)[C@H](NC(=O)[C@H]1CCCCNC(=O)C[C@H](NC(=O)CNC(=O)[C@@H](N)Cc2ccc(O)cc2)C(=O)N[C@H](Cc2ccccc2)C(=O)N[C@@H](CC(C)C)C(=O)N[C@H](CCCN=C(N)N)C(=O)N1)C(=O)N[C@@H](CCCN=C(N)N)C(=O)N1CCC[C@@H]1C(=O)N[C@H](CCCCN)C(N)=O shows pIC50 at minimum 7?
Result string: Criterion not met

Query string: In plain terms: is recorded pIC50 at least 7 for CC[C@H](C)[C@H](NC(=O)[C@H](CCCNC(=N)N)NC(=O)[C@H](CCCCN)NC(=O)[C@H](CC(C)C)NC(=O)[C@H](Cc1ccccc1)NC(=O)CNC(=O)[C@H](CC(=O)O)NC(=O)[C@@H](N)Cc1ccc(O)cc1)C(=O)N[C@@H](CCCNC(=N)N)C(=O)N1CCC[C@H]1C(=O)N[C@@H](CCCCN)C(N)=O ?
Result string: Criterion met

Query string: Textbook exercise: given the entry CC[C@H](C)[C@H](NC(=O)[C@H](CCCNC(=N)N)NC(=O)[C@H](CCCNC(=N)N)NC(=O)[C@H](CCCCN)NC(=O)[C@H](Cc1ccccc1)NC(=O)CNC(=O)CNC(=O)[C@@H](N)Cc1ccc(O)cc1)C(=O)N[C@H](CC(=O)O)C(=O)N1CCC[C@H]1C(=O)N[C@@H](CCCCN)C(N)=O , state whether its pIC50 is greater than or equal to 7.
Result string: Criterion not met

Provenance of the data: ChEMBL document CHEMBL1129516
